Assay: gradient 5% acetonitrile 3 min, to 50% in 2 min, to 85% in 15 min, held 3 min, 100 µL/min
Settings: column: Zorbax Extend-C18 2.1 x 50 mm; eluents: water / acetonitrile, 0.1% formic acid
Mark class 1 for reported RP-LC retention time of 700 s or greater; mark class 0 for anything smaller.

Answered cases to consult:
COMPOUND: CCn1c(=O)c(N2CCCC(C(=O)N3CCN(c4ccc(OC)cc4)CC3)C2)nc2ccccc21 (stereo unspecified)
CATEGORY LABEL: class 1
//
COMPOUND: CC(Oc1ccccc1)C(=O)N1CCC(c2cc(N)on2)CC1 (stereo unspecified)
CATEGORY LABEL: class 0
//
COMPOUND: O=C(Nc1ccc2c(c1)N(C(=O)C1CCCO1)CC2)c1ccc(F)c(F)c1 (stereo unspecified)
CATEGORY LABEL: class 1

--- query ---
-- ask Does CCc1nnc(-c2ccc3ccn(CC(=O)NCCc4ccccc4)c3c2)o1 have a reported RP-LC retention time of at least 700 s?
-- reply class 1

---

Test: gradient 5% acetonitrile 3 min, to 50% in 2 min, to 85% in 15 min, held 3 min, 100 µL/min
Conditions: column: Zorbax Extend-C18 2.1 x 50 mm; eluents: water / acetonitrile, 0.1% formic acid
RP-LC retention time values by entry
Express it in s; write the number only.

Sample records with RP-LC retention time:
COMPOUND: Cc1ccccc1-c1nc(C2CCN(S(=O)(=O)c3ccc4c(c3)CCC4)CC2)no1
RP-LC retention time (s): 1130
//
COMPOUND: O=C(CN1CCCC(COCc2ccccc2)C1)Nc1nccs1 (configuration not stated)
RP-LC retention time (s): 570

RP-LC retention time measured on O=C(Cn1cccc1-c1nc(-c2ccc3c(c2)OCO3)no1)Nc1ccc2c(c1)OCCO2 = 963

RP-LC retention time measured on O=C(NCCc1ccco1)c1cc2n(n1)CCCN(Cc1ccc(Cl)cc1)C2=O = 857

RP-LC retention time measured on CCOc1ccc(NS(=O)(=O)c2c(C)sc(C)c2-c2cc(C(F)(F)F)on2)cc1 = 1220

RP-LC retention time measured on Cn1c(C(=O)Nc2ccc3c(c2)OCCO3)cc2c(=O)oc3ccccc3c21 = 910

RP-LC retention time measured on CC1CS(=O)(=O)N(c2ccc(S(=O)(=O)N3CCC(C(N)=O)CC3)cc2)C1=O (configuration not stated) = 640

---

RP-LC retention time values by entry
Test: gradient 5% acetonitrile 3 min, to 50% in 2 min, to 85% in 15 min, held 3 min, 100 µL/min
Conditions: column: Zorbax Extend-C18 2.1 x 50 mm; eluents: water / acetonitrile, 0.1% formic acid
Express it in s; write the number only.

MOLECULE: CC(=O)Nc1ccc(C(=O)N2CC(C)CC(C)C2)o1 (stereo not drawn)
RP-LC retention time (s): 739
//
MOLECULE: CCn1cc(-c2nc(C(=O)Nc3ccc(Cl)cc3)cs2)c2cccnc21
RP-LC retention time (s): 1330

RP-LC retention time measured on Cc1ccc(F)c(NC(=O)c2nc(C)oc2C)c1 = 1010

---

Assay: gradient 5% acetonitrile 3 min, to 50% in 2 min, to 85% in 15 min, held 3 min, 100 µL/min
Conditions: column: Zorbax Extend-C18 2.1 x 50 mm; eluents: water / acetonitrile, 0.1% formic acid
Mark 1.0 for reported RP-LC retention time of 700 s or greater; mark 0.0 for anything smaller.

MOLECULE: CSc1cccc(NC(=O)CCCn2nc(-n3cccc3)c3c(C)cc(C)nc32)c1
CATEGORY LABEL: 1.0
//
MOLECULE: COCc1nncn1C1CN(C(=O)Nc2ccc(Cl)cc2C(F)(F)F)C1
CATEGORY LABEL: 1.0
//
MOLECULE: Cn1c(=O)oc2cc(-c3noc(-c4ccc(CS(=O)(=O)c5ccccc5)cc4)n3)ccc21
CATEGORY LABEL: 1.0
//
MOLECULE: CCC(C)NC(=O)CCc1c(-c2ccc(Br)cc2)nc2ccccn12 (stereo not given)
CATEGORY LABEL: 0.0
//
MOLECULE: Cc1ccccc1NC(=O)c1c(NC(=O)CCC(=O)O)sc2c1CCCC2
CATEGORY LABEL: 1.0

-- ask Does CCn1cc(-c2nc(CC(=O)Nc3cc(C)ccc3OC)cs2)c2cccnc21 have a reported RP-LC retention time of at least 700 s?
-- reply 1.0

-- ask Does COc1ccc(CN2C(=O)CC(c3ccc(OC)cc3)CC2=O)cc1 have a reported RP-LC retention time of at least 700 s?
-- reply 1.0

-- ask Does O=C(CCc1c(-c2ccc(Cl)cc2)nc2ccccn12)Nc1ccc(F)cc1 have a reported RP-LC retention time of at least 700 s?
-- reply 1.0

-- ask Does Cc1cccc(-c2nc(Cn3nnc(-c4nc(-c5ccc6c(c5)OCO6)no4)c3C)c(C)o2)c1 have a reported RP-LC retention time of at least 700 s?
-- reply 1.0

-- ask Does O=c1ccc(-c2ccccc2)nn1Cc1nc(-c2ccccc2Cl)no1 have a reported RP-LC retention time of at least 700 s?
-- reply 1.0

-- ask Does CCc1cc(C(=O)Nc2ccc(OC)c(Cl)c2)nc2ccnn12 have a reported RP-LC retention time of at least 700 s?
-- reply 1.0

---

RP-LC retention time values by entry
Assay: gradient 5% acetonitrile 3 min, to 50% in 2 min, to 85% in 15 min, held 3 min, 100 µL/min
Settings: column: Zorbax Extend-C18 2.1 x 50 mm; eluents: water / acetonitrile, 0.1% formic acid
Express it in s; write the number only.

COMPOUND: CCCCOc1ccc(C(=O)Nc2cc(OC)ccc2OC)cc1
READOUT VALUE: 1110

RP-LC retention time measured on CCCn1c(=O)sc2cc(S(=O)(=O)N3CCC(C(=O)NCc4cccc(C)c4)CC3)ccc21 = 975

RP-LC retention time measured on COc1ccc(OC)c(CNC(=O)C2CCCN(c3nccnc3Sc3ccc(C)cc3)C2)c1 (stereo not given) = 1070

RP-LC retention time measured on CCC1CN(C(=O)N2CCC(C(=O)NCCN3CCCCCC3)CC2)c2ccccc2O1 (stereo not given) = 660

RP-LC retention time measured on COc1cccc(-c2nc(NCc3ccncc3)ncc2C(=O)O)c1 = 577

---

Assay: gradient 5% acetonitrile 3 min, to 50% in 2 min, to 85% in 15 min, held 3 min, 100 µL/min
Details: column: Zorbax Extend-C18 2.1 x 50 mm; eluents: water / acetonitrile, 0.1% formic acid
RP-LC retention time values by entry
Express it in s; write the number only.

Sample records with RP-LC retention time:
MOLECULE: Cc1ccc(C2(O)C(=O)N(CC(=O)Nc3ccc(F)cc3F)c3ccccc32)cc1 (stereo not drawn)
RP-LC retention time (s): 715
--
MOLECULE: Cc1oc(C2CCN(S(=O)(=O)c3ccccc3F)CC2)nc1C(=O)N(C)C
RP-LC retention time (s): 781
--
MOLECULE: COc1ccc(S(=O)(=O)N2CCCOC2CNC(=O)C(=O)NC2CCCCC2)cc1 (stereo not drawn)
RP-LC retention time (s): 822

RP-LC retention time measured on O=C(C1=NN(Cc2ccccc2Cl)c2ccccc2S1(=O)=O)N1CCOCC1 = 873

---

RP-LC retention time values by entry
Assay: gradient 5% acetonitrile 3 min, to 50% in 2 min, to 85% in 15 min, held 3 min, 100 µL/min
Conditions: column: Zorbax Extend-C18 2.1 x 50 mm; eluents: water / acetonitrile, 0.1% formic acid
Express it in s; write the number only.

Sample records with RP-LC retention time:
COMPOUND: CCN(CC)CCCNC(=O)CN1C(=O)CCn2nc(-c3cn(C)c4ccccc34)cc21
READOUT VALUE: 613

COMPOUND: Cc1cccc(S(=O)Cc2ccc(C(=O)NCCN3CCOCC3)o2)c1 (stereo not given)
READOUT VALUE: 583

COMPOUND: CCC(=O)NCc1nc2c(n1CC)CN(C(=O)c1ccccc1C(F)(F)F)CC2
READOUT VALUE: 594

COMPOUND: O=C(c1cccc(F)c1)N1CCN(c2ccc(=O)n(-c3ccc(Cl)cc3)n2)CC1
READOUT VALUE: 871

COMPOUND: Cc1cccc(CNC(=O)CN2CCN(Cc3ccc(F)cc3)C(=O)C2=O)c1
READOUT VALUE: 740

RP-LC retention time measured on CCn1cc(C(=O)NC(C)c2ccc(OC)c(OC)c2)c(=O)c2ccc(C)nc21 (stereo not given) = 885

RP-LC retention time measured on CC(C)CCN1CCC(N(Cc2cccnc2)C2CCOCC2)CC1 = 551

RP-LC retention time measured on O=C(c1ccc(F)cc1Cl)N1CCN(c2cc(-c3ccc(F)cc3)[nH]n2)CC1 = 837

RP-LC retention time measured on O=S(=O)(c1cc(-c2nnc(C3CC3)o2)co1)N1CCN(c2ccccn2)CC1 = 640

RP-LC retention time measured on CC(C)c1noc(C2(NC(=O)c3cccc(F)c3)CCCCC2)n1 = 1040

RP-LC retention time measured on CCOC(=O)CSc1nnc(NC(=O)COc2ccccc2)s1 = 798

RP-LC retention time measured on Cc1noc(CN2CCN(C3CCN(Cc4ccc(C(F)(F)F)cc4)C3)C2=O)n1 (stereo not given) = 645
